experiment: chemical genetic growth profiling, strain panel (AID 1159580);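 also: tested at 20 µM; growth read once vehicle control cultures reached saturation at 30 °C; lower values mean less growth of the strain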; details: S. cerevisiae deletion strains, growth OD, locus YPL256C, strain CLN2
Out of some 5,500 compounds screened, about 2,000 (36%) were called active. Inconclusive results (about 18%) are left out. Rule as the data show it: active = normalized growth mostly below about 0.91 (no sharp cut-off); inconclusive = no clear call, values can overlap the other calls; inactive = mostly above about 0.92. Some of the results follow.
Lab note: assign the record to one of active, inactive

Sample answers from the record:
[[record]]
molecule = "CC1(C)O[C@H]2[C@H](O)C[C@](O)(C(N)=O)C[C@H]2O1"
assigned_class = "inactive"

[[record]]
molecule = "CCCCOC(=O)c1ccccc1C(=O)OCCCC"
assigned_class = "inactive"

[[record]]
molecule = "CCCOc1ccc(C(=O)OCCN(CC)CC)cc1N"
assigned_class = "inactive"

[[record]]
molecule = "CCOC(=O)c1ccc(O)cc1"
assigned_class = "inactive"


Let's switch to this molecule now.
Q: Just curious, what result did O=[N+]([O-])c1ccc2c(c1)NC(c1ccc([N+](=O)[O-])s1)O2 (stereo not given) get here?
Ans: active
